B1: ADD1 (parent)
chain: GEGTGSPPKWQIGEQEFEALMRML

- Variants of: B1
- assay.remarks: protein stability index of a GFP-peptide fusion (GPS, HEK-293T) (PSI 1-6); higher = more stable;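 further: lentivirally expressed fusions sorted by FACS into six bins by GFP to DsRed ratio, PSI derived from sequencing read proportions per bin multiplied by bin number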
- experimental.context: c terminus: a fixed tail appended
I would appreciate it if you labelled entries Fulfilled when protein stability index is 3 or higher, otherwise Not fulfilled.

Check this variant for protein stability index at or above 3: W10Y
Fulfilled

Now this one: M21N
Fulfilled

Now this one: A19D
Fulfilled

Now this one: E2K
Not fulfilled

Now this one: Q11T
Fulfilled
